Test system: CAKI-1 renal
Assay: NCI-60 one-dose screen, 48 h
Conditions: 10 µM
This is part of a sample that, as a whole, favours compounds with a hit. Of some 83,000 tested, about 20% had one in any assay. Calls of active or inactive are those of the source. Rule for the calls: active = growth percent below 10; inactive = the rest.
Outcomes: active, inactive

INSERT INTO measurements (compound, class_label) VALUES
  ('CSC1SCC2C(=O)N(C)C(C(C)C)C(=O)OCC(NC(=O)c3cnc4ccccc4n3)C(=O)NC(C)C(=O)N(C)C1C(=O)N(C)C(C(C)C)C(=O)OCC(NC(=O)c1cnc3ccccc3n1)C(=O)NC(C)C(=O)N2C (stereo not drawn)', 'active'),
  ('CO[C@H](C(=O)[C@@H](O)[C@@H](C)O)[C@@H]1Cc2cc3cc(OC4CC(OC5CC(O)C(O)C(C)O5)C(O)C(C)O4)c(C)c(O)c3c(O)c2C(=O)[C@H]1OC1CC(OC2CC(OC3CC(C)(O)C(O)C(C)O3)C(O)C(C)O2)C(O)C(C)O1 (stereo partly drawn)', 'inactive'),
  ('OC(CN1CCCC2CCCCC21)c1cc2ccccc2c2ccccc12 (stereo not drawn)', 'inactive');

---

Tested on: EKVX NSCLC
Test: NCI-60 one-dose screen, 48 h
Conditions: 10 µM
About 83,000 compounds went through this panel and 20% of them were active in at least one assay; those are over-represented in the sample as a whole. Activity calls are given as the source filed them. Rule for the calls: active = growth percent below 10; inactive = the rest.
Possible outcomes: yes (1) (active), no (0) (inactive)

INSERT INTO results (compound, class_label) VALUES
  ('CC(=O)Nc1cc(C)ccc1C', 'no (0)'),
  ('CC1=CC(C)=Nc2ccc(Cl)cc2N1', 'no (0)'),
  ('COc1cccc2c1C(=O)c1c(O)c3c(c(O)c1C2=O)C[C@@](O)(C(C)=O)C[C@@H]3OC1CC(N)C(O)C(C)O1 (stereo partly drawn)', 'yes (1)'),
  ('N=S(c1ccccc1[N+](=O)[O-])c1ccccc1[N+](=O)[O-]', 'no (0)'),
  ('CC(C)(C)CC(C)(C)c1ccc(OCCO)cc1', 'no (0)'),
  ('NC1=C(Cl)C(=O)c2ccccc2C1=O', 'no (0)'),
  ('CN1CCN(CCCN2c3ccccc3Sc3ccc(C(F)(F)F)cc32)CC1', 'no (0)'),
  ('CC[N+](CC)=c1ccc2nc3c(cc(N)c4ccccc43)oc-2c1', 'yes (1)'),
  ('NC(=O)SCC(=O)NNc1ccccc1', 'no (0)'),
  ('OC(CN1CCCC2CCCCC21)c1cc2ccccc2c2ccccc12 (stereo not drawn)', 'no (0)'),
  ('CSC1SCC2C(=O)N(C)C(C(C)C)C(=O)OCC(NC(=O)c3cnc4ccccc4n3)C(=O)NC(C)C(=O)N(C)C1C(=O)N(C)C(C(C)C)C(=O)OCC(NC(=O)c1cnc3ccccc3n1)C(=O)NC(C)C(=O)N2C (stereo not drawn)', 'yes (1)'),
  ('CCC(C)(C)c1cc(O)c(C(C)(C)CC)cc1O', 'no (0)'),
  ('CCCCCCCCCCSC(=N)N', 'no (0)'),
  ('CC(=O)OCC(OC(C)=O)C(OC(C)=O)C(OC(C)=O)C(OC(C)=O)C(/C=N/Nc1ccccc1)=N/Nc1ccccc1 (stereo not drawn)', 'no (0)'),
  ('Clc1ccc(/C=C/c2ccccn2)c(Cl)c1', 'no (0)'),
  ('COc1c(O)cc2oc3cc(O)c(CC=C(C)C)c(O)c3c(=O)c2c1CC=C(C)C', 'no (0)'),
  ('Cc1cc(O)c(C(C)C)cc1Cl', 'no (0)'),
  ('O=C(/C=C/c1ccccn1)c1ccccc1', 'no (0)'),
  ('COc1cccc2c1C(=O)c1c(O)c3c(c(O)c1C2=O)C[C@@](O)(C(=O)CO)C[C@@H]3OC1CC(N)C(O)C(C)O1 (stereo partly drawn)', 'no (0)'),
  ('NNc1c2ccccc2nc2ccccc12', 'no (0)'),
  ('O=C(/C=C/c1cccnc1)c1ccccc1', 'no (0)'),
  ('O=C1NC(=O)c2cc([N+](=O)[O-])ccc21', 'no (0)'),
  ('Clc1cc(Cl)c(Cl)nn1', 'no (0)');

---

Parameter: growth. Scope: all listed entries.
Test system: CAKI-1 renal
Assay: NCI-60 one-dose screen, 48 h (100 = growth as untreated, 0 = no growth, -100 = all killed)
Settings: 10 µM
The panel holds about 83,000 compounds, 20% with a hit somewhere; the sample as a whole holds those more often.
Quantity kind: growth (%)

INSERT INTO measurements (molecule, recorded_value) VALUES
  ('CCCCCCCCCCSC(=N)N', 46.4),
  ('CN1CCN(CCCN2c3ccccc3Sc3ccc(C(F)(F)F)cc32)CC1', 34),
  ('CCO/C=C1\SC(=S)N(c2cccc(O)c2)C1=O', 98.9),
  ('Cc1nc(N=C(N)N)nc2ccc3ccccc3c12', 75.2),
  ('OCC(O)C(O)C(O)C(/C=N/Nc1ccccc1)=N/Nc1ccccc1 (centres undefined)', 78),
  ('O=C1C=CC(=CC=C2C=CN(CCCCCCCCCCCO)C=C2)C=C1', 90.4),
  ('O=C1NC(=O)c2cc([N+](=O)[O-])ccc21', 86.4),
  ('CCCCCCCCCCCCCCCCCCOCC(COP(=O)([O-])OCC[N+](C)(C)C)OC (centres undefined)', 69),
  ('N=S(c1ccccc1[N+](=O)[O-])c1ccccc1[N+](=O)[O-]', 85.5);

---

System: OVCAR-8 ovarian
Experiment: NCI-60 one-dose screen, 48 h (100 = growth as untreated, 0 = no growth, -100 = all killed)
Settings: 10 µM
Compounds without any hit were thinned out: in the full panel of roughly 83,000, 20% have a hit.
Quantity kind: growth (%)

INSERT INTO results (compound, target, readout_unit, recorded_value) VALUES
  ('O=C(O)COc1ccc(OCC(=O)O)cc1', 'OVCAR-8 ovarian', '%', 13),
  ('CC(=O)OCC(OC(C)=O)C(OC(C)=O)C(OC(C)=O)C(OC(C)=O)C(/C=N/Nc1ccccc1)=N/Nc1ccccc1 (centres undefined)', 'OVCAR-8 ovarian', '%', 63.8),
  ('OCC1OC(n2cnc3c(=S)nc[nH]c32)C(O)C1O (centres undefined)', 'OVCAR-8 ovarian', '%', 47.3),
  ('CCN1/C(=C/C=C/C=C/c2sc3ccccc3[n+]2CC)Sc2ccccc21', 'OVCAR-8 ovarian', '%', -65.6),
  ('COC(=O)C1C(O)C(C)C(O)C(C)C=C(C)C2=C3C(=C(C)C(=O)c4c(O)c(c(C)c(OC(C)=O)c43)NC(=O)C(C)=C/C=C\C(C)C(O)C(C)C1O)OCO2 (centres undefined)', 'OVCAR-8 ovarian', '%', 114),
  ('CC(=O)Nc1cc(C)ccc1C', 'OVCAR-8 ovarian', '%', 104),
  ('N=S(c1ccccc1[N+](=O)[O-])c1ccccc1[N+](=O)[O-]', 'OVCAR-8 ovarian', '%', 96.8),
  ('Oc1ccc(N=Nc2ccccn2)c(O)c1', 'OVCAR-8 ovarian', '%', 18.5),
  ('CCCCCCCCCCCC[N+](C)(C)Cc1ccccc1', 'OVCAR-8 ovarian', '%', 11.9),
  ('CCCCCC(C)c1ccc(O)c(C)c1 (centres undefined)', 'OVCAR-8 ovarian', '%', 102),
  ('CC(C)(C)CC(C)(C)c1ccc(OCCO)cc1', 'OVCAR-8 ovarian', '%', 108),
  ('Clc1ccc(/C=C/c2ccccn2)c(Cl)c1', 'OVCAR-8 ovarian', '%', 101),
  ('Clc1cc(Cl)c(Cl)nn1', 'OVCAR-8 ovarian', '%', 94.1),
  ('CC1=CC(C)=Nc2ccc(Cl)cc2N1', 'OVCAR-8 ovarian', '%', 102),
  ('O=C1C=CC(=CC=C2C=CN(CCCCCCCCCCCO)C=C2)C=C1', 'OVCAR-8 ovarian', '%', 22.7),
  ('NC1=C(Cl)C(=O)c2ccccc2C1=O', 'OVCAR-8 ovarian', '%', 74.4),
  ('CCCCCCCCCCSC(=N)N', 'OVCAR-8 ovarian', '%', 61.5),
  ('CS(=O)(=O)OC1CC(n2ccc(=O)[nH]c2=O)OC1COC(c1ccccc1)(c1ccccc1)c1ccccc1 (centres undefined)', 'OVCAR-8 ovarian', '%', 104),
  ('O=C(/C=C/c1cccnc1)c1ccccc1', 'OVCAR-8 ovarian', '%', 83.8),
  ('CCC(C)(C)c1cc(O)c(C(C)(C)CC)cc1O', 'OVCAR-8 ovarian', '%', 65.9),
  ('CCN(CC)c1ccc(NC(C(=O)c2ccccc2)c2ccccc2)cc1 (centres undefined)', 'OVCAR-8 ovarian', '%', 9.32),
  ('NNc1c2ccccc2nc2ccccc12', 'OVCAR-8 ovarian', '%', 57.2),
  ('OC(CN1CCCC2CCCCC21)c1cc2ccccc2c2ccccc12 (centres undefined)', 'OVCAR-8 ovarian', '%', 51.6),
  ('O=[N+]([O-])C1=C(c2ccccc2)SC=C(c2ccccc2)S1', 'OVCAR-8 ovarian', '%', 71.4);
